Molecular target: T1, rat α-CGRP (Rattus norvegicus, UniProt P01256)
T1 construct: rat α (1-37); host or cells: synthetic peptide
T1 sequence (P01256 83-119 limits assumed): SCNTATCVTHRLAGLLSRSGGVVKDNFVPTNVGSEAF
Experiment: Biacore affinity of antibody G1 Fab and variants to rat α-CGRP
Format: binding
Settings: 37° C., Fab, screening mode unless underlined
Description: Biacore assay for affinity determination. […] All Biacore assays were conducted in HBS-EP running buffer (10 mM HEPES pH 7.4, 150 mM NaCl, 3 mM EDTA, 0.005% v/v polysorbate P20). […] High-resolution analysis of binding interactions with extremely slow offrates. […] The association rate constant (kon) was determined by injecting a 2-fold titration series (in duplicate) spanning 550 nM-1 nM for 30 seconds at 100 μL/min and allowing only a 30 second dissociation phase. […]
Consider the following molecules and their measured α-rat koff readings.

Use these answered entries as a reference point.
M38: G1 variant: L1 R28N,T30W; HC-FW3 L99T,A100V (antibody, V domains shown) VH: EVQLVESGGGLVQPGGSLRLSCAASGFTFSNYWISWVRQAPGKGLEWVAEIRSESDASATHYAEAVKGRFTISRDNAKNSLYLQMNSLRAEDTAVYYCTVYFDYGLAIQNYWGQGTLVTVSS VL: EIVLTQSPATLSLSPGERATLSCKASKNVWTYVSWYQQKPGQAPRLLIYGASNRYLGIPARFSGSGSGTDFTLTISSLEPEDFAVYYCSQSYNYPYTFGQGTKLEIK | 0.00511 s⁻¹
M39: G1 variant: L1 R28N; L2 G50A,L56T; H2 A57N,S58Y; HC-FW3 L99T,A100V (antibody, V domains shown) VH: EVQLVESGGGLVQPGGSLRLSCAASGFTFSNYWISWVRQAPGKGLEWVAEIRSESDNYATHYAEAVKGRFTISRDNAKNSLYLQMNSLRAEDTAVYYCTVYFDYGLAIQNYWGQGTLVTVSS VL: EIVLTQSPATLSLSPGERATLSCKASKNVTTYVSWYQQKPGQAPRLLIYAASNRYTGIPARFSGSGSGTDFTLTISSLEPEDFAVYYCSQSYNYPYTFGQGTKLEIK | 0.00995 s⁻¹
M41: G1 variant: L1 R28N; L2 G50A,L56T; H2 E54K,A57N,E64D; HC-FW3 L99T,A100V (antibody, V domains shown) VH: EVQLVESGGGLVQPGGSLRLSCAASGFTFSNYWISWVRQAPGKGLEWVAEIRSKSDNSATHYADAVKGRFTISRDNAKNSLYLQMNSLRAEDTAVYYCTVYFDYGLAIQNYWGQGTLVTVSS VL: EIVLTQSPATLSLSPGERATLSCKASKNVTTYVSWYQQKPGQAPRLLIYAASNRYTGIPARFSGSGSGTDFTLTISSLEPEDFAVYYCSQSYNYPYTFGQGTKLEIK | 0.00453 s⁻¹
M43: G1 variant: L1 R28N; L2 G50A,L56T; H2 E54K,A57N,S58C; HC-FW3 L99T,A100V (antibody, V domains shown) VH: EVQLVESGGGLVQPGGSLRLSCAASGFTFSNYWISWVRQAPGKGLEWVAEIRSKSDNCATHYAEAVKGRFTISRDNAKNSLYLQMNSLRAEDTAVYYCTVYFDYGLAIQNYWGQGTLVTVSS VL: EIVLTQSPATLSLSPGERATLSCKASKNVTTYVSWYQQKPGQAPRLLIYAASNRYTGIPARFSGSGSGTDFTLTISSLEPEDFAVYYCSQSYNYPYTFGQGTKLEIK | 0.00453 s⁻¹

Let us move to another entry and its α-rat koff.
-- ask Value lookup for α-rat koff; key = M25: G1 variant: L1 R28N; HC-FW3 L99T,A100V (antibody, V domains shown) VH: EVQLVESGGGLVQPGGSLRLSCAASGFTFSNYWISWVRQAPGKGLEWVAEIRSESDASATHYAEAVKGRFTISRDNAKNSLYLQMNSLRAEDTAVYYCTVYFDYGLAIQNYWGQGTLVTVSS VL: EIVLTQSPATLSLSPGERATLSCKASKNVTTYVSWYQQKPGQAPRLLIYGASNRYLGIPARFSGSGSGTDFTLTISSLEPEDFAVYYCSQSYNYPYTFGQGTKLEIK
-- reply 0.0014 s⁻¹
